Measured Target: Bile acid receptor (Homo sapiens)
Measurement Description: ATG_IR1_CIS: Attagene CIS-FACTORIAL HepG2 Assay for human Nuclear Receptor Subfamily 1 Group H Member 4 (NR1H4), IR1 submotif (AID 2282946)
Assay Conditions: IR1 reporter transcription, actives raise or lower the signal
The source made the active and inactive calls. How the source made its calls: active means hit-call score of the fitted dose curve at least 0.9, where 1 is the maximum; inactive means score below 0.9.
Mark one answer only. Choices: 1.0 for active, 0.0 for inactive

Request: Please state the recorded outcome for this compound: Clc1ccc(C(Cl)(Cl)Cl)cc1
Result: 0.0

====

System: guinea pig Dopamine Transporter (DAT), gene 100714898
Measurement Description: NVS_TR_gDAT: NovaScreen (NVS) Transporter Assay for guinea pig Dopamine Transporter (DAT) (AID 2283369);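 further: active compounds lower bound radioligand signal relative to DMSO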
Inconclusive results are not listed. Calls of active or inactive are those of the source. The calls were made as follows: active = hit-call score of the fitted dose curve at least 0.9, where 1 is the maximum; inconclusive = response in the unintended direction; inactive = score below 0.9.
Mark one answer only. Choices: YES = active, NO = inactive

Illustrative cases are given below, each with its answer.
• Oc1ccc(C(c2ccc(O)cc2)(C(F)(F)F)C(F)(F)F)cc1 = YES
• COc1ccc(O)c(C(C)(C)C)c1 = YES
• Nc1ccc(-c2ccc(N)cc2)cc1 = YES

Request: Please state the recorded outcome for this compound: C[C@]12CCC(=O)C=C1CC[C@@H]1[C@@H]2CC[C@]2(C)C(=O)CC[C@@H]12
Result: NO

Request: Please state the recorded outcome for this compound: O=NN(c1ccccc1)c1ccccc1
Result: NO

Request: Please state the recorded outcome for this compound: CCC(C)(c1ccc(O)cc1)c1ccc(O)cc1
Result: YES

====

Read-out: Bcl-2 (BID) gene, BID (gene 637)
Measurement Description: LTEA_HepaRG_BID: Life Technologies and Expression Analysis (LTEA) Assay for Bcl-2 (BID) gene using HepaRG (AID 2283476)
Assay Conditions: mRNA level, 48 h; actives raise or lower the signal
Procedure: LTEA_HepaRG is a cell based, multiplexed-readout assay that uses HepaRG, a human liver cell line, with measurements taken at 48 hours after chemical dosing on a 96-well plate.LTEA_HepaRG_BID is one of 102 assay component(s) measured in the LTEA HepaRG cell culture assay. It is a marker of Cell proliferation, survival, death.Data from the assay component LTEA_HepaRG_BID was analyzed into 1 endpoint. […]
The source made the active and inactive calls. The calls were made as follows: active = hit-call score of the fitted dose curve at least 0.9, where 1 is the maximum; inactive = score below 0.9.
Mark one answer only. Choices: active, inactive

* O=C(NC(=O)c1c(F)cccc1F)Nc1cc(Cl)c(OC(F)(F)C(F)F)c(Cl)c1 | inactive
* Nn1cnnc1 | inactive
* C[C@]12CCC(=O)C=C1CC[C@@H]1[C@@H]2CC[C@]2(C)C(=O)CC[C@@H]12 | active
* CC(C)C(=O)OCC(C)(C)C(OC(=O)C(C)C)C(C)C (stereo unspecified) | inactive
* CCSC(=O)N(CC)C1CCCCC1 | inactive

Request: Please state the recorded outcome for this compound: CCCCCCCCOC(=O)c1ccccc1C(=O)OCCCCCCCC
Result: inactive

====

Measurement Description: CCTE_Mundy_HCI_hNP1_Pro_ResponderAvgInten: CCTE's Proliferation Assay in human neuroprogenitor cells, Mundy Lab (AID 2284224);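 further: human neural progenitor cells hNP1 derived from WA09 embryonic stem cells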
Inconclusive results are not listed. Active and inactive are the calls of the source. The calls were made as follows: active = hit-call score of the fitted dose curve at least 0.9, where 1 is the maximum; inconclusive = response in the unintended direction; inactive = score below 0.9.
Mark one answer only. Choices: t for active, f for inactive

Illustrative cases are given below, each with its answer.
- CO/C=C(/C(=O)OC)c1ccccc1COc1cccc(C(F)(F)F)n1: t
- ClC1=C(Cl)[C@]2(Cl)[C@@H]3[C@@H](Cl)[C@H]4O[C@H]4[C@@H]3C1(Cl)C2(Cl)Cl: t

Request: Please state the recorded outcome for this compound: COc1ccc(O)c(C(C)(C)C)c1
Result: f

Request: Please state the recorded outcome for this compound: O=S(=O)(O)C(F)(F)C(F)(F)C(F)(F)C(F)(F)C(F)(F)C(F)(F)F
Result: f

Request: Please state the recorded outcome for this compound: ClC1=C(Cl)[C@]2(Cl)[C@@H]3[C@@H]4C[C@@H]([C@H]5O[C@@H]45)[C@@H]3[C@@]1(Cl)C2(Cl)Cl
Result: t

====

Read-out: Macrophage colony-stimulating factor (MCSF), CSF1 (gene 1435)
Measurement Description: BSK_LPS_MCSF: BioMAP Diversity Plus: LPS Assay for Macrophage colony-stimulating factor (MCSF) Biomarker Activity (AID 2283083)
Assay Conditions: primary human HUVEC with PBMC; actives raise or lower the signal
The source made the active and inactive calls. How the source made its calls: active means hit-call score of the fitted dose curve at least 0.9, where 1 is the maximum; inactive means score below 0.9.
Mark one answer only. Choices: active, inactive

- COS(=O)(=O)OC: inactive
- C[C@]12CCC(=O)C=C1CC[C@@H]1[C@@H]2CC[C@]2(C)C(=O)CC[C@@H]12: inactive
- O=C(N[C@H]1CN2CCC1CC2)c1cc2ccoc2cn1: inactive
- Cc1cc(O)ccc1Cl: inactive
- CO/C=C(/C(=O)OC)c1ccccc1COc1cccc(C(F)(F)F)n1: active
- C=CC(=O)NCNC(=O)C=C: inactive

Request: Please state the recorded outcome for this compound: Cc1ccccc1CO[C@@H]1C[C@@]2(C(C)C)CC[C@]1(C)O2
Result: inactive

Request: Please state the recorded outcome for this compound: CCOCCOC(C)=O
Result: inactive

Request: Please state the recorded outcome for this compound: CCOC(=O)C(O)(c1ccc(Cl)cc1)c1ccc(Cl)cc1
Result: active

Request: Please state the recorded outcome for this compound: Nc1ccc(-c2ccc(N)cc2)cc1
Result: inactive

Request: Please state the recorded outcome for this compound: CCSC(=O)N(CC)C1CCCCC1
Result: inactive

Request: Please state the recorded outcome for this compound: Sc1ccccc1
Result: inactive

Request: Please state the recorded outcome for this compound: O=C(NC(=O)c1cc(F)c(F)cc1Cl)Nc1cc(F)ccc1N1CCC(C(=O)O)CC1
Result: inactive

====

Read-out: Monokine induced gamma interferon (MIG), CXCL9 (gene 4283)
Measurement Description: BSK_3C_MIG: BioMAP Diversity Plus: 3C Assay for Monokine induced gamma interferon (MIG) Biomarker Activity (AID 2283021)
Assay Conditions: primary human endothelial cells (HUVEC); actives raise or lower the signal
Activity calls are given as the source filed them. The calls were made as follows: active = hit-call score of the fitted dose curve at least 0.9, where 1 is the maximum; inactive = score below 0.9.
Mark one answer only. Choices: active, inactive

Illustrative cases are given below, each with its answer.
* C=CC(N)=O | inactive
* Cc1cccc(C)c1N | inactive
* O=C(NC(=O)c1cc(F)c(F)cc1Cl)Nc1cc(F)ccc1N1CCC(C(=O)O)CC1 | inactive
* ClC1=C(Cl)[C@]2(Cl)[C@@H]3[C@@H]4C[C@@H]([C@H]5O[C@@H]45)[C@@H]3[C@@]1(Cl)C2(Cl)Cl | inactive
* CCC(=O)O[C@H]1CC[C@H]2[C@@H]3CCC4=CC(=O)CC[C@]4(C)[C@H]3CC[C@]12C | active
* O=S(=O)(O)C(F)(F)C(F)(F)C(F)(F)C(F)(F)C(F)(F)C(F)(F)F | inactive
* Cc1ccc(O)c(C)c1 | inactive
* CCOCCOC(C)=O | inactive

Request: Please state the recorded outcome for this compound: C[C@]12CCC(=O)C=C1CC[C@@H]1[C@@H]2CC[C@]2(C)C(=O)CC[C@@H]12
Result: inactive

Request: Please state the recorded outcome for this compound: Cc1ccccc1CO[C@@H]1C[C@@]2(C(C)C)CC[C@]1(C)O2
Result: inactive

====

Read-out: Low-density lipoprotein receptor (LDLR), LDLR (gene 3949)
Measurement Description: BSK_CASM3C_LDLR: BioMAP Diversity Plus: CASM3C Assay for Low-density lipoprotein receptor (LDLR) Biomarker Activity (AID 2283045);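 further: LDLR protein level on the cell surface quantified by ELISA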
Assay Conditions: primary human coronary artery smooth muscle cells; actives raise or lower the signal
The source made the active and inactive calls. Rule for the calls: active = hit-call score of the fitted dose curve at least 0.9, where 1 is the maximum; inactive = score below 0.9.
Test Readout: outcome

The cases that follow already have their outcome on record.
- O=S(=O)(O)C(F)(F)C(F)(F)C(F)(F)C(F)(F)F: inactive
- CCCCCCCCOC(=O)c1ccccc1C(=O)OCCCCCCCC: inactive
- Cc1ccc(O)c(C)c1: inactive
- Oc1c(Cl)c(Cl)c(Cl)c(Cl)c1Cl: inactive

Request: Tell me measured outcome for COS(=O)(=O)OC please.
Result: inactive

Request: Tell me measured outcome for CN(C)c1nc(=O)n(C2CCCCC2)c(=O)n1C please.
Result: inactive

Request: Tell me measured outcome for O=S(=O)(O)C(F)(F)C(F)(F)C(F)(F)C(F)(F)C(F)(F)C(F)(F)F please.
Result: inactive

====

Read-out: serum amyloid A (SAA), SAA1 (gene 6288)
Measurement Description: BSK_CASM3C_SAA: BioMAP Diversity Plus: CASM3C Assay for serum amyloid A (SAA) Biomarker Activity (AID 2283049);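 further: SAA protein level quantified by ELISA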
Assay Conditions: primary human coronary artery smooth muscle cells; actives raise or lower the signal
Calls of active or inactive are those of the source. How the source made its calls: active means hit-call score of the fitted dose curve at least 0.9, where 1 is the maximum; inactive means score below 0.9.
Mark one answer only. Choices: active, inactive

- Oc1ccc(C(c2ccc(O)cc2)(C(F)(F)F)C(F)(F)F)cc1: active
- Oc1ccc(Cl)cc1Cl: inactive
- CCCN(CCC)N=O: inactive
- Cc1ccc(O)c(C)c1: inactive
- c1cc2ccc3cccc4ccc(c1)c2c34: inactive
- Cc1cc2c3c(c1)C(c1ccccc1)=N[C@@H](NC(=O)c1ccncc1)C(=O)N3CC2: inactive
- C=CC(N)=O: inactive
- CO/C=C(/C(=O)OC)c1ccccc1COc1cccc(C(F)(F)F)n1: inactive
- ClC1=C(Cl)[C@]2(Cl)[C@@H]3[C@H]4C[C@H]([C@@H]5O[C@H]45)[C@@H]3[C@@]1(Cl)C2(Cl)Cl: inactive
- Sc1ccccc1: inactive

Request: Please state the recorded outcome for this compound: O=S(=O)(O)C(F)(F)C(F)(F)C(F)(F)C(F)(F)C(F)(F)C(F)(F)F
Result: inactive

Request: Please state the recorded outcome for this compound: O=C(NC(=O)c1cc(F)c(F)cc1Cl)Nc1cc(F)ccc1N1CCC(C(=O)O)CC1
Result: inactive

Request: Please state the recorded outcome for this compound: CCCCCCCCCC[N+](C)(C)CCCCCCCCCC
Result: active

Request: Please state the recorded outcome for this compound: CCC(C)(c1ccc(O)cc1)c1ccc(O)cc1
Result: inactive

Request: Please state the recorded outcome for this compound: O=C(O)C(F)(F)C(F)(F)C(F)(F)C(F)(F)C(F)(F)C(F)(F)C(F)(F)C(F)(F)C(F)(F)F
Result: inactive

Request: Please state the recorded outcome for this compound: Cc1cc(-c2ccc(N)c(C)c2)ccc1N
Result: inactive

Request: Please state the recorded outcome for this compound: CCOP(=S)(OCC)SCSC(C)(C)C
Result: inactive
